Notes on IC50 obtained with ROCK2 (Homo sapiens).

Would you please look over these solved cases?
{"compound": "CCn1nc(-c2ccc(C3CCCN(CC(F)(F)F)C3)cc2)nc1Nc1cc2c(cc1F)C(=O)NC2C (stereo not shown)", "assayTarget": "ROCK2 (Homo sapiens)", "IC50": "300 to 3000 nM"}
{"compound": "CCn1nc(-c2ccc(-n3cnc(C4CC4)c3)cc2)nc1Nc1ccc2c(c1)C(C)(C)NC2=O", "assayTarget": "ROCK2 (Homo sapiens)", "IC50": "< 300 nM"}
{"compound": "CCn1nc(-c2ccc(-c3ccc(C)nc3)c(C)c2)nc1Nc1ccc2c(c1)C(C)NC2=O (stereo not shown)", "assayTarget": "ROCK2 (Homo sapiens)", "IC50": "< 300 nM"}

Lookup: # value lookup — system ROCK2 (Homo sapiens), readout IC50, item CCn1nc(-c2ccc(-c3ccn(C)c3)c(C)c2)nc1Nc1cc2c(cc1C)C(=O)NC2C (stereo not shown)
Found: < 300 nM

Lookup: # value lookup — system ROCK2 (Homo sapiens), readout IC50, item CCn1nc(-c2ccc(-n3cnc(C4CC4)c3)c(F)c2)nc1Nc1ccc2c(c1)C(C)NC2=O (stereo not shown)
Found: < 300 nM

Lookup: # value lookup — system ROCK2 (Homo sapiens), readout IC50, item CCn1nc(-c2ccc(-c3ccnc(C)c3)c(C)c2)nc1Nc1ccc2c(c1)CNC2=O
Found: < 300 nM

----------
Listed next: entries and their corresponding pIC50.
assayTarget: UniProt:O75116
pIC50: −log10 of the molar value.

Would you please look over these solved cases?
{"molecule": "CCn1nc(-c2cc(C)c(-c3ccc(C4CC4)cn3)cc2C)nc1Nc1cc2c(cc1C)C(=O)NC2C (centres unmarked)", "pIC50": "> 6.52"}
{"molecule": "CCn1nc(-c2ccc(-c3cnn(CC(F)(F)F)c3)cc2C)nc1Nc1cc2c(cc1C)C(=O)NC2C (centres unmarked)", "pIC50": "> 6.52"}
{"molecule": "CCn1nc(-c2ccc(C3CCCN(C)C3)cc2)nc1Nc1cc2c(cc1C)C(=O)NC2C (centres unmarked)", "pIC50": "< 5.00"}
{"molecule": "CCn1nc(-c2cc(C)c(-c3ccc(C)nc3)cc2C)nc1Nc1cc2c(cc1C)C(=O)NC2C (centres unmarked)", "pIC50": "> 6.52"}
{"molecule": "CCn1nc(-c2ccc(-n3cnc(C4CC4)c3)c(C)c2)nc1Nc1cc2c(cc1C)C(=O)NC2C (centres unmarked)", "pIC50": "> 6.52"}
{"molecule": "CCn1nc(-c2ccc(-c3ccc(C)nc3)c(C(C)=O)c2)nc1Nc1cc2c(cc1C)C(=O)NC2C (centres unmarked)", "pIC50": "> 6.52"}
{"molecule": "CCn1nc(-c2cc(C)c(-c3ccc(C)cn3)cc2C)nc1Nc1cc2c(cc1C)C(=O)NC2C (centres unmarked)", "pIC50": "> 6.52"}

Now consider a different molecule.
Lookup: Endpoint output: pIC50 of CCn1nc(-c2ccc(-c3ccc(C)nc3)cc2)nc1Nc1ccc2c(c1C)C(C)NC2=O (centres unmarked) . Value?
Found: 5.00 to 5.52

----------
Listed next: entries and their corresponding IC50.
assayTarget: ROCK2 (Homo sapiens, UniProt O75116)
Construct: N-terminal 6His-tagged ROCK2 catalytic domain 11-552; 6His (N); purchased Dundee University, UK; host or cells: baculovirus expression system
Sequence (O75116 11-552): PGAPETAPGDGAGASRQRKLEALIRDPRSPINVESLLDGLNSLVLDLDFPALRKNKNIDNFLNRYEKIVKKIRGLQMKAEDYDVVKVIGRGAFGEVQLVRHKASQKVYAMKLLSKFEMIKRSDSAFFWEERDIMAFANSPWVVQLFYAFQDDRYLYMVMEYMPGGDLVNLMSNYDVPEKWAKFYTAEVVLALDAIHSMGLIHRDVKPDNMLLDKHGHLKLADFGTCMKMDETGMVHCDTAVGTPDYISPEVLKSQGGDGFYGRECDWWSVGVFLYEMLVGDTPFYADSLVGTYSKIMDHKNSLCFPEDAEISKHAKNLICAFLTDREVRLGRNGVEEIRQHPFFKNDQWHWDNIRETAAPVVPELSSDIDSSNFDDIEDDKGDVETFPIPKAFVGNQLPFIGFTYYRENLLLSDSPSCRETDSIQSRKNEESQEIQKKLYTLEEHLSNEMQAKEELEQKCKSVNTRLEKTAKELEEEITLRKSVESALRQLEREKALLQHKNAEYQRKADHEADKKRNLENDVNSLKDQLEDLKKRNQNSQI
testMethodNotes: ROCK2 inhibition assay (ADP-Glo kinase assay, called ROCK2 binding activity)
Type: biochemical
reportedConditions: 20 μM ATP, 1 hour pre-incubation, read-out: ROCK 2 (IC50 category)

Would you please look over these solved cases?
{"molecule": "CCn1nc(-c2ccc(-c3cnc(C)c(C)c3)cc2)nc1Nc1ccc2c(c1)CNC2=O", "IC50": "< 300 nM"}
{"molecule": "CCn1nc(-c2ccc(-c3cnn(CC(F)(F)F)c3)cc2)nc1Nc1cc2c(cc1C)C(=O)N[C@@H]2C", "IC50": "< 300 nM"}
{"molecule": "CCn1nc(-c2ccc(-c3ccc(C4CC4)nc3)cc2)nc1Nc1ccc2c(c1)C(C)NC2=O (stereo not shown)", "IC50": "< 300 nM"}

Lookup: Endpoint output: IC50 of CCn1nc(-c2ccc(-c3ccc(C4CC4)cn3)c(C)c2)nc1Nc1ccc2c(c1)C(C)NC2=O (stereo not shown) . Value?
Found: < 300 nM

----------
Notes on IC50 obtained with ROCK2 (Homo sapiens).

{"compound": "CCn1nc(-c2ccc(-c3ccc(C(C)(C)O)nc3)c(C)c2)nc1Nc1cc2c(cc1C)C(=O)NC2C (centres unmarked) [Example 154]", "measurementLabel": "IC50", "observedResult": "< 300 nM"}
{"compound": "CCn1nc(-c2ccc(-c3ccc(C)nc3)cc2)nc1Nc1ccc2c(c1)C1(CC1)NC2=O [Example 69]", "measurementLabel": "IC50", "observedResult": "< 300 nM"}
{"compound": "Cc1cc(-c2nc(Nc3ccc4c(c3C)CNC4=O)n(C)n2)ccc1-c1cnc(C2CC2)n1C [Example 12]", "measurementLabel": "IC50", "observedResult": "3000 to 10000 nM"}
{"compound": "CCn1nc(-c2ccc(-c3ccc(C)nc3)c(C)c2)nc1Nc1ccc2c(c1)CNC2=O [Example 31]", "measurementLabel": "IC50", "observedResult": "< 300 nM"}
{"compound": "CCn1nc(-c2ccc(-n3cnc(C4CC4)c3)cc2)nc1Nc1ccc2c(c1)CNC2=O [Example 24]", "measurementLabel": "IC50", "observedResult": "< 300 nM"}

Lookup: # value lookup — system ROCK2 (Homo sapiens), readout IC50, item CCn1nc(-c2ccc(-c3ccc(C4CC4)nc3)cc2)nc1Nc1cc2c(cc1C)C(=O)NC2C (centres unmarked) [Example 70]
Found: < 300 nM

Lookup: # value lookup — system ROCK2 (Homo sapiens), readout IC50, item CCn1nc(-c2ccc(C3=CCN(C)CC3)cc2C)nc1Nc1cc2c(cc1C)C(=O)NC2C (centres unmarked) [Example 117]
Found: 300 to 3000 nM

Lookup: # value lookup — system ROCK2 (Homo sapiens), readout IC50, item CCn1nc(-c2ccc(C3=CCNCC3)cc2)nc1Nc1ccc2c(c1)CNC2=O [Example 67]
Found: 3000 to 10000 nM

----------
Listed next: entries and their corresponding IC50.
assayTarget: ROCK1 (Homo sapiens)
Sequence (Q13464 whole entry): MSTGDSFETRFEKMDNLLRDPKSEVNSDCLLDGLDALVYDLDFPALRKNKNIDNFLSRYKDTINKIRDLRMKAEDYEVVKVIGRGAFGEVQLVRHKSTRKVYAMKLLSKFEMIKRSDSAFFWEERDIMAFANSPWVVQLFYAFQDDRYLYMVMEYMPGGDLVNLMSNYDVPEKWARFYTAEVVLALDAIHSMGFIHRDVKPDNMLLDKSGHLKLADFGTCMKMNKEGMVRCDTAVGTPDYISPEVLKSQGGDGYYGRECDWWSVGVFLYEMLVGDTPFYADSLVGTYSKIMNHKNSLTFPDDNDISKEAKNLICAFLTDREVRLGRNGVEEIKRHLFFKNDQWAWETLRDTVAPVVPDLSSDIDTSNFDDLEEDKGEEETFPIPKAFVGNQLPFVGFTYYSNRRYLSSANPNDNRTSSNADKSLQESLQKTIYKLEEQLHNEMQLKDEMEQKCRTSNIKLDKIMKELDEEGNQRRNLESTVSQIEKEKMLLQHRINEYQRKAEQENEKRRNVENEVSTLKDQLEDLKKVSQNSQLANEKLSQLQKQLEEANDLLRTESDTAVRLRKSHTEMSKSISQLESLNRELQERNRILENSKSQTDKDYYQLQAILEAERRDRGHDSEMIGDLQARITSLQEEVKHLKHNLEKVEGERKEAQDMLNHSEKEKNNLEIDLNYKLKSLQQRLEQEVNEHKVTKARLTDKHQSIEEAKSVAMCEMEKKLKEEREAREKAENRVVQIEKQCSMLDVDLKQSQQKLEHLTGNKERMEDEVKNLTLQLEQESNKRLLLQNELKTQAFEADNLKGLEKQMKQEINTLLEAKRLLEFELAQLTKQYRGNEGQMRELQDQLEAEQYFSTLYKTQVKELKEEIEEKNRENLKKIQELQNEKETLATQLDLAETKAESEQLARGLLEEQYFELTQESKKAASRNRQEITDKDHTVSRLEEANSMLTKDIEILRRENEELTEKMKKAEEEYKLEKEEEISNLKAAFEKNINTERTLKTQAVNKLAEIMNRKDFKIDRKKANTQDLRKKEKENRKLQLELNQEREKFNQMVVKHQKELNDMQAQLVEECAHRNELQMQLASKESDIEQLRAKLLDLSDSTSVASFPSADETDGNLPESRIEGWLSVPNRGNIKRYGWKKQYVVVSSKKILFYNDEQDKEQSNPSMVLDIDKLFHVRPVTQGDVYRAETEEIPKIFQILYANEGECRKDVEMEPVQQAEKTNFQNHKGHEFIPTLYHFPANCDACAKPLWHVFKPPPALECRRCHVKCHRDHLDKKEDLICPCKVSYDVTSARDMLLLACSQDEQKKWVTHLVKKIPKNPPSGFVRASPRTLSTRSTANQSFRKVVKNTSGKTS

{"molecule": "CCn1nc(-c2ccc(-c3ccc(C4CC4)nc3)cc2F)nc1Nc1ccc2c(c1)C(C)NC2=O (stereo not shown)", "assayTarget": "ROCK1 (Homo sapiens)", "IC50": "3 to 10 µM"}
{"molecule": "CCn1nc(-c2ccc(-c3ccc(C)nc3)c(OC)c2)nc1Nc1ccc2c(c1)CNC2=O", "assayTarget": "ROCK1 (Homo sapiens)", "IC50": "< 0.3 µM"}
{"molecule": "CCn1nc(-c2ccc(-c3ccccn3)cc2)nc1Nc1ccc2c(c1)CNC2=O", "assayTarget": "ROCK1 (Homo sapiens)", "IC50": "3 to 10 µM"}

Lookup: Endpoint output: IC50 of CCc1cn(-c2ccc(-c3nc(Nc4ccc5c(c4)CNC5=O)n(C)n3)cc2)c(C)n1 . Value?
Found: > 10 µM

----------
Notes on pIC50 obtained with ROCK2 (Homo sapiens).
pIC50: −log10 of the molar value.

Would you please look over these solved cases?
{"compound": "CCn1nc(-c2ccc(-c3cnc(C4CC4)n3C)c(C)c2)nc1Nc1ccc2c(c1)C(C)NC2=O (stereo not shown)", "pIC50": "> 6.52"}
{"compound": "CCn1nc(-c2ccc(C3=CCNC3)cc2)nc1Nc1ccc2c(c1)CNC2=O", "pIC50": "5.00 to 5.52"}
{"compound": "CCn1nc(-c2ccc(-c3nc(C)ccc3C)c(C)c2)nc1Nc1cc2c(cc1C)C(=O)NC2C (stereo not shown)", "pIC50": "5.00 to 5.52"}
{"compound": "CCn1nc(-c2ccc(C3CCN(C)CC3)c(C)c2)nc1Nc1cc2c(cc1C)C(=O)NC2C (stereo not shown)", "pIC50": "< 5.00"}
{"compound": "CCn1nc(-c2ccc(-c3ccc(C4CC4)nc3)cc2F)nc1Nc1ccc2c(c1)C(C)NC2=O (stereo not shown)", "pIC50": "> 6.52"}
{"compound": "CCn1nc(-c2ccc(-c3ccc(C4CC4)nc3)cc2)nc1Nc1cc2c(cc1F)C(=O)N[C@H]2C", "pIC50": "> 6.52"}

Lookup: # value lookup — system ROCK2 (Homo sapiens), readout pIC50, item CCn1nc(-c2ccc(-n3cnc(C4CC4)c3)cc2C)nc1Nc1cc2c(cc1C)C(=O)N[C@H]2C
Found: > 6.52

----------
Notes on IC50 obtained with UniProt:O75116.

{"compound": "CCn1nc(-c2ccc(C3CCN(C)CC3)cc2)nc1Nc1cc2c(cc1C)C(=O)NC2C (centres unmarked) [Example 142]", "observedResult": "> 10 µM"}
{"compound": "CCn1nc(-c2ccc(-c3ccc(C)nc3C)c(C)c2)nc1Nc1cc2c(cc1C)C(=O)NC2C (centres unmarked) [Example 92]", "observedResult": "< 0.3 µM"}

Lookup: # value lookup — system UniProt:O75116, readout IC50, item CCn1nc(-c2ccc(C3CCCN(C)C3)c(C)c2)nc1Nc1cc2c(cc1C)C(=O)NC2C (centres unmarked) [Example 140]
Found: > 10 µM
